biological target: rat serum albumin (rat, UniProt P02770 25-608); assay: ProteOn kinetic analysis
Sequence (P02770 25-608 limits assumed): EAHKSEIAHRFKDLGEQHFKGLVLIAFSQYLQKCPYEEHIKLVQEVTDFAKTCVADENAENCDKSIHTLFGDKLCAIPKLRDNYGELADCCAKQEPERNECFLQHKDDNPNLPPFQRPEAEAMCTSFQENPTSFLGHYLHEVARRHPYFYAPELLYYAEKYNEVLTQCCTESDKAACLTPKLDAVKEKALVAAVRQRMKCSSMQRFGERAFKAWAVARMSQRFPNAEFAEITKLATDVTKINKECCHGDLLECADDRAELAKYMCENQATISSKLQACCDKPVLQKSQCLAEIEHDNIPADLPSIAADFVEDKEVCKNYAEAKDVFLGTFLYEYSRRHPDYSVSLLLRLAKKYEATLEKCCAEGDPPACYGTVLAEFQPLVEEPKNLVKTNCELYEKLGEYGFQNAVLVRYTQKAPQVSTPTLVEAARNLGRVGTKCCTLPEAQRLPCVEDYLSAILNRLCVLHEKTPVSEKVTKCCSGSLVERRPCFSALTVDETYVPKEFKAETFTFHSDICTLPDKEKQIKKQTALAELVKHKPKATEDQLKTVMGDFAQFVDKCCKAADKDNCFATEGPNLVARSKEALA
kon values for the binders below.
Provide the measurement as a number trailed by its unit.

# Binder, Endpoint value
rows = [
    ("SEQ ID NO 10 (VHH, also called R at position 30) VHH: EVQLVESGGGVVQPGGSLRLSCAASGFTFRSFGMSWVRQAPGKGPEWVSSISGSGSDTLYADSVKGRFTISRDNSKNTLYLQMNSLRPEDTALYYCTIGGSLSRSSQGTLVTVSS", "710000 M⁻¹ s⁻¹"),
    ("SEQ ID NO 129 (VHH, also called T at position 30) VHH: DVQLVESGGGVVQPGGSLRLSCAASGFTFTSFGMSWVRQAPGKGPEWVSSISGSGSDTLYADSVKGRFTISRDNSKNTLYLQMNSLRPEDTATYYCTIGGSLSRSGQGTLVTVSS", "430000 M⁻¹ s⁻¹"),
    ("SEQ ID NO 145 (VHH, also called T at position 30) VHH: DVQLVESGGGVVQPGGSLRLSCAASGFTFTSFGMSWVRQAPGKGPEWVSSISGSGSDTLYADSVKGRFTISRDNSKNTLYLQMNSLRPEDTAAYYCTIGGSLSRSGQGTLVTVSS", "420000 M⁻¹ s⁻¹"),
]

Now for the binder whose kon we want.
Data request: So what does the record say about kon for SEQ ID NO 127 (VHH, also called T at position 30) VHH: DVQLVESGGGVVQPGGSLRLSCAASGFTFTSFGMSWVRQAPGKGPEWVSSISGSGSDTLYADSVKGRFTISRDNSKNTLYLQMNSLRPEDTALYYCTIGGSLSRSGQGTLVTVSS ?
Data returned: 450000 M⁻¹ s⁻¹
